Source: BindingDB's records for doi:10.1016/j.ejmech.2014.11.002

# target system: Cytosolic beta-glucosidase (Bos taurus)
# assay explanation: Inhibition of bovine liver beta-glucosidase at pH 5.5 incubated for 10 to 30 mins using beta-D-glycopyranoside substrate by spectrophotometry
Assignment: determine reported pKi for the given molecules.
Answers are plain numbers, as −log10 of the molar value.

{"smiles str": "COC(=O)CCCCCCCCCCCCCCCSC1=N[C@H]2O[C@H](CO)[C@@H](O)[C@H](O)[C@H]2O1", "target system": "Cytosolic beta-glucosidase (Bos taurus)", "result number": 4.35}

Reported pKi of "OC[C@H]1O[C@@H]2N=C(SCCCCCCCCCCCCCCCCF)O[C@@H]2[C@@H](O)[C@@H]1O" : 4.18
